target: DPP IV enzyme (Homo sapiens, UniProt P27487); experiment: Stability against DPP IV enzyme; type: in vitro ADME; details: 2 μM, 37° C.; read-out: half-life (t1/2) with DPP-IV enzyme
Sequence (P27487 whole entry, species assumed): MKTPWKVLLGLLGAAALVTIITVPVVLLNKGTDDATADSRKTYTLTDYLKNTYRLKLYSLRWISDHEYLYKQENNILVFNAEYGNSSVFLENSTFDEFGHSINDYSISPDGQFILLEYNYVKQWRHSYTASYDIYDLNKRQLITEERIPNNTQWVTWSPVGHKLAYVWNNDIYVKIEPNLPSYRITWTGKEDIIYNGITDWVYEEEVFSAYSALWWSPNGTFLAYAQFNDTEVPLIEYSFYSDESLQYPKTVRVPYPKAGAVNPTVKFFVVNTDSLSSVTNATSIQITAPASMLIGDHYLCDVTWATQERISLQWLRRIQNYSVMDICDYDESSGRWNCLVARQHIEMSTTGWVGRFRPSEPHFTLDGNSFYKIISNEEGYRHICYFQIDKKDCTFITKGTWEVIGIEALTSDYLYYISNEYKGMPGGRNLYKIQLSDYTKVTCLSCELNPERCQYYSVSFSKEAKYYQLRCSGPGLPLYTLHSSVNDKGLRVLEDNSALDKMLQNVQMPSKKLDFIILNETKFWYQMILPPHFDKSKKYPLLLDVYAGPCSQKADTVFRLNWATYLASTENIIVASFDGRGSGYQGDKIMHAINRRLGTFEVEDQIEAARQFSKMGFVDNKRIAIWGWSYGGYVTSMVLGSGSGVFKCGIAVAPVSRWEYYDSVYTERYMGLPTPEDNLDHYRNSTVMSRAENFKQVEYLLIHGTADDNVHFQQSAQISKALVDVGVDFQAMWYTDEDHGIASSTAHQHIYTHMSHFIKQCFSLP
Where a SMILES comes first, the peptide text is derived from it. [ ]: non-standard residue; d: D form. ξ: configuration not given here. ξαMeBip(2'-Et,4'-OMe) = CCc1cc(OC)ccc1-c1ccc(CC(C)(N)C(=O)O)cc1; ξBip(2'-Et-4'-OMe) = CCc1cc(OC)ccc1-c1ccc(CC(N)C(=O)O)cc1; ξαMePhe(2,6-F2) = CC(N)(Cc1c(F)cccc1F)C(=O)O; ξαMe(hhPhe) = CC(N)(CCCc1ccccc1)C(=O)O; ξαMePhe(2-F) = CC(N)(Cc1ccccc1F)C(=O)O; ξhhPhe = NC(CCCc1ccccc1)C(=O)O; ξαMeD = CC(N)(CC(=O)O)C(=O)O; Aib = CC(C)(N)C(=O)O
In this section we review reported half-life values for a set of compounds.
I only need the number, in h, no unit after it.

Here is how some compounds turned out for half-life.
Compound	Units Symbol	half-life
CCc1cc(OC)ccc1-c1ccc(CC(NC(=O)[C@H](CC(=O)O)NC(=O)[C@H](CO)NC(=O)[C@@H](NC(=O)[C@H](Cc2ccccc2)NC(=O)[C@@H](NC(=O)CNC(=O)[C@H](CCC(N)=O)NC(=O)[C@H](CO)NC(=O)[C@H](Cc2c[nH]cn2)NC(=O)[C@@H](N)C(C)C)[C@@H](C)O)[C@@H](C)O)C(=O)NC(C)(CCCc2ccccc2)C(N)=O)cc1 (stereo partly drawn) [compound 81] (H-VHSQGTFTSD[ξBip(2'-Et-4'-OMe)][ξαMe(hhPhe)]-NH2)	h	9
CCc1cc(OC)ccc1-c1ccc(CC(C)(NC(=O)C(C)(CC(=O)O)NC(=O)[C@H](CO)NC(=O)[C@@H](NC(=O)C(C)(Cc2ccccc2F)NC(=O)[C@@H](NC(=O)CNC(=O)[C@H](CCC(=O)O)NC(=O)[C@H](CO)NC(=O)[C@H](Cc2c[nH]cn2)NC(=O)[C@@H](N)C(C)C)[C@@H](C)O)[C@@H](C)O)C(=O)NC(CCCc2ccccc2)C(N)=O)cc1 (stereo partly drawn) [compound 69] (H-VHSEGT[ξαMePhe(2-F)]TS[ξαMeD][ξαMeBip(2'-Et,4'-OMe)][ξhhPhe]-NH2)	h	9

The record that follows has no half-life shown yet.
Q: Request the reported half-life associated with CCc1cc(OC)ccc1-c1ccc(CC(C)(NC(=O)C(C)(CC(=O)O)NC(=O)[C@H](CO)NC(=O)[C@@H](NC(=O)C(C)(Cc2c(F)cccc2F)NC(=O)[C@@H](NC(=O)CNC(=O)[C@H](CCC(N)=O)NC(=O)C(C)(C)NC(=O)[C@H](Cc2c[nH]cn2)NC(=O)[C@@H](N)C(C)C)[C@@H](C)O)[C@@H](C)O)C(=O)NC(CCCc2ccccc2)C(N)=O)cc1 (stereo partly drawn) [compound 75] (H-VH[Aib]QGT[ξαMePhe(2,6-F2)]TS[ξαMeD][ξαMeBip(2'-Et,4'-OMe)][ξhhPhe]-NH2)
A: 9
